experiment.summary: viability loss with induced miR-34 in A549 – imaging, A549 dox-inducible miR-34, nuclei and caspase counts, primary screen (AID 1347080); note: test concentration not given here
condition.context: A549 miR-34 inducible, Hoechst nuclei count, 48 h; measured here: total cells without miR-34 induction
property.measured: cell count

CCCCC(F)(F)C(=O)CCC1C(O)CC(=O)C1CCCCCCC(=O)O (centres undefined) ... 8740
COc1ccc(OC)c2c1c(C)cc(=O)n2C ... 9790
Nc1ncccc1OCc1ccccc1 ... 10300
CCN1CCN(C(=O)NC(C(=O)NC2C(=O)N3C2SC(C)(C)C3C(=O)O)c2ccccc2)C(=O)C1=O (centres undefined) ... 10000
CC1=C(C(=O)O)N2C(=O)[C@@H](NC(=O)C(N)C3=CCC=CC3)[C@H]2SC1 (some centres undefined) ... 10300
CC[C@H]1OC(=O)[C@H](C)C(O[C@H]2C[C@@](C)(OC)[C@@H](O)[C@H](C)O2)[C@H](C)[C@@H](OC2O[C@H](C)C[C@H](N(C)C)[C@H]2O)[C@](C)(O)C[C@@H](C)CN(C)[C@H](C)[C@@H](O)[C@]1(C)O (some centres undefined) ... 9500
COC(=O)CCSCc1ccc(-c2onc(C)c2NC(=O)OC(C)c2ccccc2Cl)cc1 (centres undefined) ... 7730
OC(CC1c2ccccc2-c2cncn21)C1CCCCC1 (centres undefined) ... 8410
CC1(C)OC2C[C@H]3[C@@H]4CCC5=CC(=O)C=C[C@]5(C)[C@]4(F)C(O)C[C@]3(C)[C@@]2(C(=O)CO)O1 (some centres undefined) ... 6270
